// provenance: paper PMC8140157

Target: T1, RTEL1∆762R1264H (human, UniProt Q9NZ71-6 762-1300, R1264H)
T1 sequence: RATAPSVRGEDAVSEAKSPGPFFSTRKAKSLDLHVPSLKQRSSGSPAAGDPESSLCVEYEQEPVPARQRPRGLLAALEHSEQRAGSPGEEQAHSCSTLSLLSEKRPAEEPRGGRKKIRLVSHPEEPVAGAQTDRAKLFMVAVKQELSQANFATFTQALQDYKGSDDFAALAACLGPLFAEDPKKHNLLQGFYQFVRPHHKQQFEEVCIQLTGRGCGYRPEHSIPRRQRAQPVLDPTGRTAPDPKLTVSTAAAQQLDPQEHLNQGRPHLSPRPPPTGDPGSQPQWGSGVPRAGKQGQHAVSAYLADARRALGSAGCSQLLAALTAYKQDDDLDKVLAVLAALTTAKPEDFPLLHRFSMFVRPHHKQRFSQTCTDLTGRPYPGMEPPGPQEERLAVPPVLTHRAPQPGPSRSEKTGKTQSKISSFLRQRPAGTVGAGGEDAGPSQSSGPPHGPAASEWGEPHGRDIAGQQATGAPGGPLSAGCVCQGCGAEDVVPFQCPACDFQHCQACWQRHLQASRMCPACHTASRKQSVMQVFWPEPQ
Test: competition (fluorescence anisotropy); vs FAM-TERRA-MUT, 1 uM; 20 mM Tris pH 7.5, 50 mM KCl, 0.5 mM TCEP, 0.5 mM MgCl2, 10% glycerol, 0.1% IGEPAL, room temperature 30 min; oligos refolded in 10 mM Tris pH 7.5, 100 mM KCl; EMSA legends give 150 or 300 mM KCl
Conditions: protein: recombinant; tags: 6xHis; G4
quantity: pKi
Answers are plain numbers, as −log10 of the molar value.

Quick request: pKi for each listed item, please.
1. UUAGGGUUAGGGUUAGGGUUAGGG (structured_RNA) [TERRA competitor]
2. GGTTAGGGTTAGGGTTAGGGTTAGGGTTAG (structured_DNA) [hTelo]

**Result**
1. 6.97
2. 6.67
